Experimental target: Edg-1 (Homo sapiens)
Sequence (P21453 whole entry): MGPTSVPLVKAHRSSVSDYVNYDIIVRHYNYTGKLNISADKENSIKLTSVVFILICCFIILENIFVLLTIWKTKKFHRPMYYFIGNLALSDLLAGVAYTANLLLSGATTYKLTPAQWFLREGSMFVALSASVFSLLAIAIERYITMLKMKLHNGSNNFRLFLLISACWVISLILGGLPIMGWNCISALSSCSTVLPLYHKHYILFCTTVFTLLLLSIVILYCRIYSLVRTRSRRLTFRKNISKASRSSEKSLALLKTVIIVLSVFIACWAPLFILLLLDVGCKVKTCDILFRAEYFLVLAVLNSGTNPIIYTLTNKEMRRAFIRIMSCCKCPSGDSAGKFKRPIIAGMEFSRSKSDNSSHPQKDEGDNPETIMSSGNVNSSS
Method: Calcium mobilization assay (FLIPR), agonist stimulation of calcium increase
Condition parameters: HTC cells expressing Edg-1
pEC50: −log10 of the molar value.
Recorded metric: pEC50

Worked examples, 2 compounds total:
COc1ccc(-c2nc3ccc(C(=O)O)cc3nc2-c2ccc(OC)cc2)cc1	< 4.60
CCCCCC(CCCCC)=N/N=C1\NC(=O)C(CC(=O)O)S1 (stereo not drawn)	< 4.60

Please turn your attention to the following entry.
Name the recorded pEC50 for `Cc1cc(C)c2c(c1)Cc1ccccc1S2(=O)=O` .
< 4.60

====

The following compounds are listed with their measured IC50 values.
Experimental target: UniProt:O95136
Sequence (O95136 whole entry): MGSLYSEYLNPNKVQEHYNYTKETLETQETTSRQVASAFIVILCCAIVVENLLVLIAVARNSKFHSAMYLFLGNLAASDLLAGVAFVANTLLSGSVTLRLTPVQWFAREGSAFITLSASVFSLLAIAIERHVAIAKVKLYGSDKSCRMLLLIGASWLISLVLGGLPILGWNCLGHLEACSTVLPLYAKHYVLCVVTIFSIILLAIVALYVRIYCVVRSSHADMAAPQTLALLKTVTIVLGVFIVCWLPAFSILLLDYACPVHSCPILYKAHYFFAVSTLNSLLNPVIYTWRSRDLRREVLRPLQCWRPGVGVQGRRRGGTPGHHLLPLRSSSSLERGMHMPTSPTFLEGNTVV
Method: Calcium mobilization assay (FLIPR), inhibition of S1P-stimulated calcium increase
Condition parameters: HTC cells expressing Edg-5

Worked examples, 2 compounds total:
Cc1ccc(S(=O)(=O)N=C2NC(=O)/C(=C3/C(=O)Nc4ccccc43)S2)cc1	> 20 µM
O=C(O)COc1ccc(Br)cc1/C=C1\S/C(=N\c2ccc(Cl)cc2)NC1=O (racemic)	> 20 µM

Please turn your attention to the following entry.
Name the recorded IC50 for `CCOC(=O)c1c(NC(=O)NS(=O)(=O)c2ccccc2Cl)sc2c1CCCC2` .
> 20 µM

====

Experimental target: human Edg 7 receptors (Homo sapiens, UniProt Q9UBY5)
Sequence (Q9UBY5 whole entry): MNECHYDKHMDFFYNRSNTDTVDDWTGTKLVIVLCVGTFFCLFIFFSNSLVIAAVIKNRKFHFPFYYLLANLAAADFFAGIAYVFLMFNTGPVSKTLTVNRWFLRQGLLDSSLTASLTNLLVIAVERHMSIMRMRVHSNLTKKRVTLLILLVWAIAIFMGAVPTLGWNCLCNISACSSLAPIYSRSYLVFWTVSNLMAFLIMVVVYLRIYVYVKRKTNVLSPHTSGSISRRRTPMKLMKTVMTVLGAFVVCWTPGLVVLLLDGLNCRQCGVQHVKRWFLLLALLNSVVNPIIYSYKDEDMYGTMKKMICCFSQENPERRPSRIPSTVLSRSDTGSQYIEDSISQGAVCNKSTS
Method: Calcium mobilization assay (FLIPR), agonist stimulation of calcium increase
Condition parameters: HTC cells expressing human Edg 7
The following compounds are listed with their measured pEC50 values.
Hey, just a heads up that pEC50 is the negative log base 10 of the concentration in molar.

COc1ccc(-c2nc3ccc(C(=O)O)cc3nc2-c2ccc(OC)cc2)cc1 [Compound 129]	6.43
CCCCCC(CCCCC)=N/N=C1\NC(=O)C(CC(=O)O)S1 (stereo not drawn) [Compound 127]	6.64

Please turn your attention to the following entry.
Name the recorded pEC50 for Cc1cc(C)c2c(c1)Cc1ccccc1S2(=O)=O [Compound 133] .
5.79

====

The following compounds are listed with their measured pEC50 values.
Experimental target: Edg-2 (Homo sapiens)
Construct: expressed in transfected cells; host or cells: HTC rat hepatoma cells
Sequence (Q92633 whole entry): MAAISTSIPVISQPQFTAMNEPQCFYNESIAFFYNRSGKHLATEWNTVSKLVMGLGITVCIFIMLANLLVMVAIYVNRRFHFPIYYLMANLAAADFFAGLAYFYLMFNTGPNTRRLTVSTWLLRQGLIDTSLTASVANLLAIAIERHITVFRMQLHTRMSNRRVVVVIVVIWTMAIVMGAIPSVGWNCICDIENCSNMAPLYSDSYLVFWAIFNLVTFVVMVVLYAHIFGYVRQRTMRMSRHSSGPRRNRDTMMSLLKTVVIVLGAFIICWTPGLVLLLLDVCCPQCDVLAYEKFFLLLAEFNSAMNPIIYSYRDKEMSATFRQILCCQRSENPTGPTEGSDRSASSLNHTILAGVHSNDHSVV
Method: Calcium mobilization assay (FLIPR), agonist stimulation of calcium increase
Type: cell-based
Condition parameters: HTC cells expressing Edg-2
pEC50: −log10 of the molar value.

Worked examples, 2 compounds total:
CCCCCC(CCCCC)=N/N=C1\NC(=O)C(CC(=O)O)S1 (stereo not drawn)	< 4.60
COc1ccc(-c2nc3ccc(C(=O)O)cc3nc2-c2ccc(OC)cc2)cc1	< 4.60

Please turn your attention to the following entry.
Name the recorded pEC50 for `Cc1cc(C)c2c(c1)Cc1ccccc1S2(=O)=O` .
< 4.60

====

Experimental target: UniProtKB O95977
Sequence (O95977 whole entry): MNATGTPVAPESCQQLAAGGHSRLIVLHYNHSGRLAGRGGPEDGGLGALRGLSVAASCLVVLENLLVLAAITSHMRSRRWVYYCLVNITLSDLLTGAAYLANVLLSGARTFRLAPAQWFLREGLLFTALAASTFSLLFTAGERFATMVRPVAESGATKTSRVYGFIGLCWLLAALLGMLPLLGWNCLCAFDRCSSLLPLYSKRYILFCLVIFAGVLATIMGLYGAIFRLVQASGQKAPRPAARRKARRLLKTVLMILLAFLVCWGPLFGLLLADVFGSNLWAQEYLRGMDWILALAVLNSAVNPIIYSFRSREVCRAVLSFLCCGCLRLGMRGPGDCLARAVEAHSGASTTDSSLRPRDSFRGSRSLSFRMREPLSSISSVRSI
Method: Calcium mobilization assay (FLIPR), inhibition of S1P-stimulated calcium increase
Condition parameters: HTC cells expressing Edg-6
pIC50: −log10 of the molar value.
Recorded metric: pIC50

CCOC(=O)c1c(NC(=O)NS(=O)(=O)c2ccccc2Cl)sc2c1CCCC2	< 4.70
O=C(O)COc1ccc(Br)cc1/C=C1\S/C(=N\c2ccc(Cl)cc2)NC1=O (racemic)	< 4.70

Entry `Cc1ccc(S(=O)(=O)N=C2NC(=O)/C(=C3/C(=O)Nc4ccccc43)S2)cc1` , system UniProtKB O95977: what pIC50 was measured?
< 4.70

====

The following compounds are listed with their measured IC50 values.
Experimental target: Edg-8 (Homo sapiens, UniProt Q9H228)
Sequence (Q9H228 whole entry): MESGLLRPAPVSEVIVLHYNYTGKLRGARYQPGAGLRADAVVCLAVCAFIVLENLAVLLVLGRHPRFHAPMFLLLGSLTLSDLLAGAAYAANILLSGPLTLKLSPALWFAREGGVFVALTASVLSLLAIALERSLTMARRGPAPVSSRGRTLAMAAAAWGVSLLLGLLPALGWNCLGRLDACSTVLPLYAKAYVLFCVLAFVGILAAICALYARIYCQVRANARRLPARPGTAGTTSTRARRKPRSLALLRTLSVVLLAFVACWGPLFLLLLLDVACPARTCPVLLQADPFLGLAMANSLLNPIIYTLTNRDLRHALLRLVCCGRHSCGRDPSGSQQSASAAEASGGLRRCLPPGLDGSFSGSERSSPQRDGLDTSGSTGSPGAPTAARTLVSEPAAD
Method: Calcium mobilization assay (FLIPR), inhibition of S1P-stimulated calcium increase
Condition parameters: HTC cells expressing Edg-8

CCOC(=O)c1c(NC(=O)NS(=O)(=O)c2ccccc2Cl)sc2c1CCCC2	> 20 µM
Cc1ccc(S(=O)(=O)N=C2NC(=O)/C(=C3/C(=O)Nc4ccccc43)S2)cc1	> 20 µM

Name the recorded IC50 for O=C(O)COc1ccc(Br)cc1/C=C1\S/C(=N\c2ccc(Cl)cc2)NC1=O (racemic) .
> 20 µM

====

The following compounds are listed with their measured IC50 values.
Experimental target: UniProt Q9HBW0
Sequence (Q9HBW0 1-344 limits assumed): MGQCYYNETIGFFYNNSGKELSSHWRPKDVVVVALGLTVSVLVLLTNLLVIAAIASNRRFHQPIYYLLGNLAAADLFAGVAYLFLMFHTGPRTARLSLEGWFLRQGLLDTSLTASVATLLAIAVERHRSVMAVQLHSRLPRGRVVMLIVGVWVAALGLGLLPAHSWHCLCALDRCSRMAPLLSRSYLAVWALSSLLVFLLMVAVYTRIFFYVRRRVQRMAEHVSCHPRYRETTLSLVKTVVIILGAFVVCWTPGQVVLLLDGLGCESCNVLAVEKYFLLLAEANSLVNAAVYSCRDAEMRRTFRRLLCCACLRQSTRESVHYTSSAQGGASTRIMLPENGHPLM
Method: Calcium mobilization assay (FLIPR), inhibition of LPA-stimulated calcium increase
Condition parameters: HTC cells expressing Edg-4

Worked examples, 2 compounds total:
CCOC(=O)c1c(NC(=O)NS(=O)(=O)c2ccccc2Cl)sc2c1CCCC2	> 20 µM
O=C(O)COc1ccc(Br)cc1/C=C1\S/C(=N\c2ccc(Cl)cc2)NC1=O (racemic)	> 20 µM

Entry `Cc1ccc(S(=O)(=O)N=C2NC(=O)/C(=C3/C(=O)Nc4ccccc43)S2)cc1` , system UniProt Q9HBW0: what IC50 was measured?
> 20 µM

====

Experimental target: Edg-3 (Homo sapiens, UniProt Q99500)
Sequence (Q99500 whole entry): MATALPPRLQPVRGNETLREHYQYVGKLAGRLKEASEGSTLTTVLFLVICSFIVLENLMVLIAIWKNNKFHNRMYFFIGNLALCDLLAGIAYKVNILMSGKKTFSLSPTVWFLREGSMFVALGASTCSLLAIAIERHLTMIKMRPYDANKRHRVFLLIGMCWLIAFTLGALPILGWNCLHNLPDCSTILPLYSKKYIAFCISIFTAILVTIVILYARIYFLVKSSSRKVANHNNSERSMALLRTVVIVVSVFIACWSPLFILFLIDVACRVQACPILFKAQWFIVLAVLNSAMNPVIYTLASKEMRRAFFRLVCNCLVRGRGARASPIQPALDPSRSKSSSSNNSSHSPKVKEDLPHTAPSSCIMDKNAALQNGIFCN
Method: Calcium mobilization assay (FLIPR), agonist stimulation of calcium increase
Condition parameters: HTC cells expressing Edg-3
pEC50: −log10 of the molar value.
Recorded metric: pEC50

CCCCCC(CCCCC)=N/N=C1\NC(=O)C(CC(=O)O)S1 (stereo not drawn)	< 4.60
Cc1cc(C)c2c(c1)Cc1ccccc1S2(=O)=O	< 4.60

Please turn your attention to the following entry.
Name the recorded pEC50 for `COc1ccc(-c2nc3ccc(C(=O)O)cc3nc2-c2ccc(OC)cc2)cc1` .
< 4.60
